Target: cathepsin K (Homo sapiens)
Sequence (P43235 115-329): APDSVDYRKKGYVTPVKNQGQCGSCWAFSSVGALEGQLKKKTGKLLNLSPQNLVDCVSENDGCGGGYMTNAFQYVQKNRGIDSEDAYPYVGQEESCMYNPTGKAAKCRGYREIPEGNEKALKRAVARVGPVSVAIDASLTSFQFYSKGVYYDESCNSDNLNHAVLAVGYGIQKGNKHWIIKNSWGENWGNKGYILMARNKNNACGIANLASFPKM
pIC50: −log10 of the molar value.
Measured pIC50 accompanies every entry in the list below.

Below are worked cases with known answers.
N#CCNC(=O)[C@@H]1CCCN(C(=O)OCc2ccccc2)N1C(=O)CCNC(=O)Cc1ccccc1	5.00 to 6.00
N#CC(OC(=O)[C@@H]1CCCN(C(=O)OCc2ccccc2)N1C(=O)CCNC(=O)Cc1ccccc1)c1cccc(Oc2ccccc2)c1 (mixture of isomers)	5.00 to 6.00

# ---- query compound ----
Prompt: // lookup pIC50 for N#CC(NC(=O)[C@@H]1CCCN(C(=O)OCc2ccccc2)N1C(=O)CCNC(=O)Cc1ccccc1)c1ccccc1 (stereo partly drawn)
Completion: 5.00 to 6.00

---

Reported IC50 values, cathepsin K (Homo sapiens, UniProt P43235).

N#CC(NC(=O)[C@@H]1CCCNN1C(=O)CCNC(=O)Cc1ccccc1)c1cccc(Oc2ccccc2)c1 (mixture of isomers)	< 1000 nM

Prompt: API: value(readout= IC50, system= cathepsin K (Homo sapiens, UniProt P43235), query= N#CC(NC(=O)[C@@H]1CCCNN1C(=O)CCNC(=O)Cc1ccccc1)c1ccccc1 (stereo partly drawn) )
Completion: 1000 to 10000 nM

Prompt: Form: Entry = N#CC(NC(=O)[C@@H]1CCCNN1C(=O)CCc1ccccc1)c1cccc(Oc2ccccc2)c1 (stereo partly drawn) | System = cathepsin K (Homo sapiens, UniProt P43235) | IC50 = ____
Completion: < 1000 nM

Values compiled from patent US7223758B2.
